>  <MOLECULE>
CC(=O)N(c1ccc(O)cc1)c1ccc2cc(O)ccc2c1

>  <melting point>
255 °C

$$$$
>  <MOLECULE>
O=S(=O)(c1ccc2ccccc2c1)N1CCOc2ccc(CCCI)cc21

>  <melting point>
87 to 88 °C

$$$$
>  <MOLECULE>
COP(=O)(OC)c1cc(Oc2ccc(C(F)(F)F)cc2Cl)ccc1[N+](=O)[O-]

>  <melting point>
83 °C

$$$$
>  <MOLECULE>
COc1cc2c(Nc3ccc(Sc4nccn4C)c(Cl)c3)c(C#N)cnc2cc1-c1csc(CN2CCN(C)CC2)c1

>  <melting point>
162 to 164 °C

$$$$
>  <MOLECULE>
COC(=O)c1c(OCc2ccc(-c3ccccc3-c3nnn[nH]3)cc2)cc(C)nc1Cl

>  <melting point>
204 to 207 °C

$$$$
>  <MOLECULE>
O=C1C(=Cc2cccs2)CCc2cc(OCCn3ccnc3)ccc21

>  <melting point>
137 to 138 °C

$$$$
>  <MOLECULE>
O=C(NCCO)c1ccc([N+](=O)[O-])cc1

>  <melting point>
134 to 135 °C

$$$$
>  <MOLECULE>
FC(F)(F)c1ccc(CC[C@H]2CN(Cc3ccccc3)CCN2Cc2ccccc2)cc1

>  <melting point>
71 to 75 °C

$$$$
>  <MOLECULE>
Nc1ccc(OCc2ccccc2)c2cnsc12

>  <melting point>
126 to 128 °C

$$$$
>  <MOLECULE>
COc1ccc(-c2[nH]nc3c2C(=O)c2c(NC(=O)Cc4ccccc4Cl)cccc2-3)cc1

>  <melting point>
300 °C

$$$$
>  <MOLECULE>
CCOC(=O)CCC1Cc2cc(O)ccc2NC1=O (configuration not stated)

>  <melting point>
138 °C

$$$$
>  <MOLECULE>
O=C(O)c1cc2n(c1)CCCC2

>  <melting point>
131 to 134 °C

$$$$
